assay: Cmax in C57BL/6N mouse at 150 mg/kg, po administered as single dose measured up to 8 hrs by LC-MS/MS analysis; assay type: ADME, organism-based; set-up: route oral, dose 150 mg/kg, time <=8; settings: in vivo
readout.type: Cmax (ng/mL)
Write the value in ng/mL as a bare number.

Requested field: Cmax. Item: COc1c(F)cc(C2CC(C(C)(C)C)=NN2c2ccc(C(=O)N3CCN(C)CC3)cc2)cc1F (stereo unspecified)
4000

* * *

experiment: AUC (0 to 8 hrs) in C57BL/6N mouse at 150 mg/kg, po administered as single dose measured up to 8 hrs by LC-MS/MS analysis; type: ADME, organism-based; set-up: route oral, dose 150 mg/kg, time <=8; settings: in vivo
readout.type: AUC(0-t) (ng·h/mL)
Write the value in ng·h/mL as a bare number.

Requested field: AUC(0-t). Item: COc1c(F)cc(C2CC(C(C)(C)C)=NN2c2ccc(C(=O)N3CCN(C)CC3)cc2)cc1F (stereo unspecified)
14100

* * *

target: cGMP-specific 3',5'-cyclic phosphodiesterase (Homo sapiens, UniProt O76074); assay: Inhibition of recombinant full length GST-tagged PDE5A1 (unknown origin) expressed in baculovirus infected Sf9 insect cells using TAMRA-cGMP as substrate incubated for 1.5 hrs by IMAP-FP assay
pIC50: −log10 of the molar value.
readout.type: pIC50

INSERT INTO results (compound, readout_type, reported_measurement) VALUES
  ('COc1c(F)cc(C2CC(C(C)(C)C)=NN2c2ccc(C(=O)O)cc2)cc1F (centres undefined)', 'pIC50', 7.05),
  ('COc1cc(F)c(C2CC(C(C)(C)C)=NN2c2ccc(C(=O)N3CCN(C)CC3)cc2)cc1F (centres undefined)', 'pIC50', 6.59),
  ('COc1ccc(C2CC(C(C)(C)C)=NN2c2ccc(C(=O)N3CCN(C)CC3)cc2)c(F)c1F (centres undefined)', 'pIC50', 8.40),
  ('COc1ccc(C2CC(C(C)(C)C)=NN2c2ccc(C(=O)O)cc2)c(F)c1F (centres undefined)', 'pIC50', 7.22),
  ('COc1ccc(C2CC(C(C)(C)C)=NN2c2ccc(C(=O)N3CCN(C)CC3)cc2)cc1 (centres undefined)', 'pIC50', 7.05);

A = COc1ccc(C2CC(c3cccc(C)c3)=NN2c2ccc(C(=O)O)cc2)cc1 (centres undefined)
B = COc1ccc(C2CC(C(C)(C)C)=NN2c2ccc(C(=O)N3CCN(C)CC3)cc2)cc1F (centres undefined)
C = CCCCNC(=O)c1ccc(N2N=C(c3ccccc3)CC2c2ccc(OC)cc2)cc1 (centres undefined)
Sort these compounds on pIC50 so the largest reading comes first. Dear reader, please state the labels in the requested order.
B, C, A
(B: 7.70, C: 6.39, A: 5.81)

P = COc1cc(F)c(C2CC(C(C)(C)C)=NN2c2ccc(C(=O)O)cc2)cc1F (centres undefined)
Q = CCCCNC(=O)c1ccc(N2N=C(C(C)(C)C)CC2c2ccc(OC)c(F)c2)cc1 (centres undefined)
R = COc1ccc(C2CC(c3ccccc3)=NN2c2ccc(C(=O)O)cc2)cc1F (centres undefined)
Hey, can you sort those compounds up there by pIC50, smallest first? Dear reader, please state the labels in the requested order.
P, R, Q

A = COc1cc(C2CC(C(C)(C)C)=NN2c2ccc(C(=O)O)cc2)ccc1F (centres undefined)
B = COc1ccc(C2CC(C(C)(C)C)=NN2c2ccc(C(=O)O)cc2)cc1Cl (centres undefined)
Of the two listed items, which has the higher pIC50? First: A Second: B Please respond with the label that marks your chosen entry.
B
(B: 6.05, A: 5.00)

a = COc1ccc(C2CC(c3ccccc3)=NN2c2ccc(C(=O)N3CCN(C)CC3)cc2)cc1 (centres undefined)
b = COc1ccc(C2CC(C(C)(C)C)=NN2c2ccc(C(=O)O)cc2)cc1F (centres undefined)
c = COc1ccc(C2C3COc4ccccc4C3=NN2c2ccc(C(=O)O)cc2)cc1 (centres undefined)
d = COc1ccc(C2CC(c3ccccc3C)=NN2c2ccc(C(=O)O)cc2)cc1F (centres undefined)
Sort these compounds on pIC50 so the largest reading comes first. Dear reader, please state the labels in the requested order.
a, d, b, c
(a: 7.11, d: 6.89, b: 6.23, c: 5.94)

P = COc1cc(C2CC(C(C)(C)C)=NN2c2ccc(C(=O)N3CCN(C)CC3)cc2)ccc1F (centres undefined)
Q = CCOc1c(F)cc(C2CC(C(C)(C)C)=NN2c2ccc(C(=O)N3CCN(C)CC3)cc2)cc1F (centres undefined)
R = COc1ccc(C2CC(c3ccccc3C)=NN2c2ccc(C(=O)NCCO)cc2)cc1 (centres undefined)
S = COc1ccc(C2CC(c3ccc(O)cc3)=NN2c2ccc(C(=O)O)cc2)cc1 (centres undefined)
Sort these compounds on pIC50 so the largest reading comes first. Dear reader, please state the labels in the requested order.
Q, R, P, S

I = COc1ccc(C2CC(c3ccccc3O)=NN2c2ccc(C(=O)O)cc2)cc1 (racemic)
II = COc1ccc(C2CC(c3ccccc3C)=NN2c2ccc(C(=O)N3CCOCC3)cc2)cc1 (centres undefined)
Kindly identify the item with the lower pIC50 figure among these two: I and II Please respond with the label that marks your chosen entry.
I

a = COc1ccc(C2C3Cc4ccccc4C3=NN2c2ccc(C(=O)O)cc2)cc1 (centres undefined)
b = CCOc1c(F)cc(C2CC(C(C)(C)C)=NN2c2ccc(C(=O)O)cc2)cc1F (centres undefined)
Kindly identify the item with the lower pIC50 figure among these two: a and b Please respond with the label that marks your chosen entry.
a
(a: 5.84, b: 6.70)

1 = CCCCNC(=O)c1ccc(N2N=C(C(C)(C)C)CC2c2ccc(OC)cc2)cc1 (centres undefined)
2 = CCNC(=O)c1ccc(N2N=C(c3ccccc3)CC2c2ccc(OC)cc2)cc1 (centres undefined)
Kindly identify the item with the lower pIC50 figure among these two: 1 and 2 Please respond with the label that marks your chosen entry.
1

I = COc1ccc(C2CC(c3ccccc3C)=NN2c2ccc(C(=O)N3CCN(C)CC3)cc2)cc1 (centres undefined)
II = COc1ccc(C2CC(C(C)(C)C)=NN2c2ccc(C(=O)N3CCN(C)CC3)cc2)cc1Cl (centres undefined)
Of the two listed items, which has the higher pIC50? First: I Second: II Please respond with the label that marks your chosen entry.
I
(I: 7.68, II: 6.72)
